Listing: Hipp-Asp (% conversion) of selected molecules
Experiment: Conversion of Hipp-Asp by purified HCPB mutants, 30 minutes, HPLC (Example 17)
Type: biochemical
Conditions: enzyme 2.5 μg/ml; 0.5 mM substrate; 30 minutes at 37° C.
Give a bare numeral; the unit % is implied.

{"MOLECULE": "[G251K, D253R]: HCPB mutant with G251K and D253R (protein, UniProt P15086 111-417, looked up, variant G251K D253R) Carboxypeptidase B: ATGHSYEKYNKWETIEAWTQQVATENPALISRSVIGTTFEGRAIYLLKVGKAGQNKPAIFMDCGFHAREWISPAFCQWFVREAVRTYGREIQVTELLDKLDFYVLPVLNIDGYIYTWTKSRFWRKTRSTHTGSSCIGTDPNRNFDAGWCEIGASRNPCDETYCGPAAESEKETKALADFIRNKLSSIKAYLTIHSYSQMMIYPYSYAYKLGENNAELNALAKATVKELASLHGTKYTYGPGATTIYPAAGKSRDWAYDQGIRYSFTFELRDTGRYGFLLPESQIRATCEETFLAIKYVASYVLEHLY", "Hipp-Asp (% conversion), %": 0.2}

The value of Hipp-Asp (% conversion) measured for the molecule [G251N,D253K]: HCPB mutant with G251N and D253K, (His)6-c-myc tag (protein, UniProt P15086 111-417, looked up, variant G251N D253K, (His)6-c-myc tag) Carboxypeptidase B: ATGHSYEKYNKWETIEAWTQQVATENPALISRSVIGTTFEGRAIYLLKVGKAGQNKPAIFMDCGFHAREWISPAFCQWFVREAVRTYGREIQVTELLDKLDFYVLPVLNIDGYIYTWTKSRFWRKTRSTHTGSSCIGTDPNRNFDAGWCEIGASRNPCDETYCGPAAESEKETKALADFIRNKLSSIKAYLTIHSYSQMMIYPYSYAYKLGENNAELNALAKATVKELASLHGTKYTYGPGATTIYPAAGNSKDWAYDQGIRYSFTFELRDTGRYGFLLPESQIRATCEETFLAIKYVASYVLEHLY turned out to be 1.9

The value of Hipp-Asp (% conversion) measured for the molecule [G251N,D253R]: HCPB mutant with G251N and D253R, (His)6-c-myc tag (protein, UniProt P15086 111-417, looked up, variant G251N D253R, (His)6-c-myc tag) Carboxypeptidase B: ATGHSYEKYNKWETIEAWTQQVATENPALISRSVIGTTFEGRAIYLLKVGKAGQNKPAIFMDCGFHAREWISPAFCQWFVREAVRTYGREIQVTELLDKLDFYVLPVLNIDGYIYTWTKSRFWRKTRSTHTGSSCIGTDPNRNFDAGWCEIGASRNPCDETYCGPAAESEKETKALADFIRNKLSSIKAYLTIHSYSQMMIYPYSYAYKLGENNAELNALAKATVKELASLHGTKYTYGPGATTIYPAAGNSRDWAYDQGIRYSFTFELRDTGRYGFLLPESQIRATCEETFLAIKYVASYVLEHLY turned out to be 1.4

This collection of values is drawn from patent US6436691B1.
